Items are presented alongside their recorded melting point.

{"compound": "COc1ccc(-c2cnc3[nH]cc(C(=O)C(C)(C)C)c3n2)cc1", "melting point": "207 to 208 °C"}
{"compound": "O=C(CNC(=O)c1ccc(F)cc1)c1cccnc1", "melting point": "164 to 166 °C"}
{"compound": "COC(=O)N1CCN2c3ccc(N4CC(CNC(C)=O)OC4=O)cc3OCC2C1 (stereo unspecified)", "melting point": "185 to 190 °C"}
{"compound": "O=c1[nH]c2cc(Cl)cc(OCCNCc3ccsc3)c2[nH]1", "melting point": "> 250 °C"}
{"compound": "O=S(=O)(c1ccccc1)N1C[C@@H](c2c[nH]c3ccccc23)[C@H](c2cn3c4c(cccc24)CCC3)C1", "melting point": "115 to 125 °C"}
{"compound": "O=C(O)c1ccc(-c2ncc(-c3ccc(F)cc3F)o2)cc1", "melting point": "301 to 302 °C"}
{"compound": "O=CCCCCCCCCCCC(=O)O", "melting point": "53 to 54 °C"}
{"compound": "Clc1nc2ccccc2c2occc12", "melting point": "120 to 122 °C"}
{"compound": "CC(C)(C)OC(=O)Nc1cc(OCc2ccccc2)c(OCc2ccccc2)cn1", "melting point": "163 °C"}
{"compound": "CCC(C)c1nn(-c2ccc(C(F)(F)F)cn2)cc1CO (stereo unspecified)", "melting point": "76 to 77 °C"}

In: Consider the compound Cc1ccc(C(=O)c2cccc(C(=O)O)c2)c(O)c1 and give its recorded melting point.
Out: 198 to 215 °C

In: Item Cc1ccc(C(=O)CCN(C)Cc2cccc3ccccc23)cc1 : provide melting point
Out: 92 to 95 °C

In: Fill in melting point for record COc1ccc(-c2cc(Cl)on2)cc1
Out: 82 to 83 °C

In: Tell us which melting point value is on record for O=C(Nc1ccc(C(F)(F)F)cc1)N1CCC2Cc3ccccc3C2=N1 (stereo unspecified)
Out: 122 to 124 °C

In: Supply reported melting point belonging to this compound: COc1ccc(Sc2ccc3c(c2)CCC2N(C)C(=O)CCC32C)cc1 (single isomer, unassigned; (+))
Out: 150 to 151 °C

In: Give the value of melting point reported for the following: COc1ccc([C@H]2CCCN2[S@@](=O)C(C)(C)C)cc1
Out: 61 to 63 °C

In: State its melting point: COc1ccccc1NC(=O)Nc1nc(Oc2ccc3ccccc3c2)nc(N(CCC(=O)O)Cc2ccccc2C(F)(F)F)n1
Out: 232 to 233 °C

###

Below: a set of entries, each annotated with reported melting point.

{"molecule": "CCC(Oc1ccccc1)C(=O)OC1CC(O)C=C2C=CC(C)C(CCC3CC(O)CC(=O)O3)C21 (mixture of isomers)", "melting point": "120 to 122 °C"}
{"molecule": "CNc1nc(-c2cccc(NC(=O)c3ccc(Cl)cc3)c2)c2cc(OC)c(OC)cc2n1", "melting point": "193 to 195 °C"}
{"molecule": "CCCCCCc1ccc(CCc2cc3c(s2)NC(=S)CN=C3c2ccccc2Cl)cc1", "melting point": "140 to 145 °C"}
{"molecule": "O=C(Nc1ccccc1OCc1ccccc1)c1nnnn1Cc1ccccc1", "melting point": "140 to 142 °C"}

Switching to the query record.
In: Please report the measured melting point for COc1ccc(Cn2c(=O)c(C(=O)NC3CCCCC3)c(O)c3cc(Cl)cnc32)cc1
Out: 193 °C

###

Item-by-item account of melting point

Consider the following illustrative entries.
{"compound": "O=C(NC1CCC1)c1cc(Nc2nc(Cl)nc3ccoc23)[nH]n1", "reading": "277 °C"}
{"compound": "Cc1cccc(Nc2nncc3ccccc23)c1", "reading": "176 to 177 °C"}

In: State, in one line, measured melting point of COc1cc(O)cc(C(F)(F)F)c1
Out: 75 °C

In: In one line, give reported melting point of the entry O=C(Nc1ccccc1C(=O)O)C(=Cc1ccccc1)C(=O)Nc1ccccc1C(=O)O .
Out: 247 to 249 °C

In: Given Cc1ccccc1-c1c(C(C)n2cnc3c(N)ncnc32)oc2ccccc2c1=O (configuration not stated) , respond with its melting point.
Out: 202 to 205 °C

In: For the compound COc1cc2c(Nc3ccc4cn[nH]c4c3)c(C#N)cnc2cc1OCCN1CCOCC1 , give its reported melting point.
Out: 133 to 135 °C

In: Give the reported melting point for this compound. COC(=O)c1ccc(C2C(C(=O)c3ccc(OC)cc3)=C(O)C(=O)N2c2nnc(C)s2)cc1 (configuration not stated)
Out: 255 to 257 °C

In: Supply recorded melting point for Cn1nc(-c2cc(C(C)(C)C)c(O)c(C(C)(C)C)c2)c2cccnc21 here.
Out: 152 to 154 °C

In: Answer with the recorded melting point of O=S(=O)(Cc1ccccc1)C1CCN(Cc2ccccc2)CC1 only.
Out: 120 to 121 °C

In: Specify reported melting point for the compound shown: O=C(Cl)COC(=O)c1ccccc1
Out: 25 to 26 °C

In: Look up and state reported melting point for CC(C)Cn1c(CNC(=O)OC(C)(C)C)c(-c2ccccc2F)c2cc(C#N)ccc2c1=O
Out: 191 to 192 °C

###

The compounds listed here are annotated with their melting point.

Observe how each entry below is paired with its result.
{"compound": "CN(C)c1ccc(C2OC(C)(C)N=C2c2ccccc2)cc1 (stereo not given)", "melting point": "123 °C"}
{"compound": "Cc1ccc2c(c1)c(Cc1nc3cc(C(F)(F)F)ccc3s1)cn2CC(=O)O", "melting point": "248 to 249 °C"}
{"compound": "CCn1ncc(C(=O)c2ccc(S(C)(=O)=O)c(C)c2Cl)c1O", "melting point": "225 to 227 °C"}
{"compound": "CCOC(=O)Cc1ccc(CCNS(=O)(=O)c2ccc(Cl)cc2)cc1", "melting point": "88 to 90 °C"}
{"compound": "CCOC(=O)N1CCC(=C2c3ccsc3C=Cn3ccnc32)CC1", "melting point": "194 °C"}
{"compound": "COC(=O)/C=C/n1cnc2c(OC)cccc2c1=O", "melting point": "203 to 208 °C"}

In: Quickly give me recorded melting point for COC(=O)NNC(=O)Nc1cc(Cl)cc(Cl)c1
Out: 246 °C

In: Could you please provide reported melting point for Cc1cc(C(C)(C)C)c(O)c(S(=O)(=O)Nc2ccc([N+](=O)[O-])cc2Cl)c1 ? Thanks!
Out: 239 to 243 °C

In: Tell me its melting point given CC1C(=O)Nc2c(C(=O)c3ccc(Cl)cc3)cccc21 (stereo not given) as the entry.
Out: 130 to 140 °C

In: Look up and state reported melting point for CN(CC1CCCCN1)C(=O)c1cc(OCC(F)(F)F)ccc1OCC(F)(F)F (stereo not given)
Out: 104 to 107 °C

###

Catalogue of molecules with associated melting point

Consider the reported melting point for these molecules:
{"molecule": "COC(=O)CC1CCN(CCC=C2c3ccccc3OCOc3ccccc32)C1 (stereo unspecified)", "melting point": "70 to 90 °C"}
{"molecule": "COc1cc(OC)c(-c2cc3ccccc3s2)cc1C=O", "melting point": "134 to 136 °C"}
{"molecule": "CON1C=Cc2ccccc2C1", "melting point": "113 to 114 °C"}
{"molecule": "COC(=O)CCCOc1ccc(CC(C)NCC(O)c2cc3ccccc3o2)cc1 (stereo unspecified)", "melting point": "63 to 70 °C"}
{"molecule": "Cc1cc(CN2C(=O)C3(COc4cc5c(cc43)OCO5)c3ccccc32)c(C)n1C(C)C (stereo unspecified)", "melting point": "169 to 171 °C"}

In: Fill in reported melting point for this entry: COC1=CC(=O)C(OC)=C(CCCCCC2=C(OC)C(=O)C(Cl)=C(OC)C2=O)C1=O
Out: 44.8 to 46 °C

In: Supply reported melting point belonging to this molecule: Cn1c(=O)[nH]c(=O)c2c1ncn2CC#N
Out: 285 to 287 °C

In: Name the recorded melting point of the item COc1ccc(-c2cc3c(O)ncnc3[nH]2)cc1 in your answer.
Out: > 300 °C

In: Answer with reported melting point of CCOC(=O)NC1=NN(c2cccc(Cl)c2)C(=O)C1C (stereo unspecified)
Out: 162 °C

In: For the molecule Fc1ccc(-c2ccc(-c3cn([C@H]4CN5CCC4CC5)nn3)cc2)cn1 , give its reported melting point.
Out: 181 °C

In: Please report melting point for the following molecule: O=C(Nc1ccccc1)OCC(=O)c1ccccc1
Out: 146 to 148 °C

###

Entries and their melting point values follow.

Consider the reported melting point for these compounds:
{"compound": "CC(=O)N1CCN(c2cccc(O)c2)CC1", "reported.endpoint": "melting point", "reading": "186 °C"}
{"compound": "CN1[C@H]2CC[C@@H]1[C@H](C=O)[C@@H](c1ccc(Cl)c(Cl)c1)C2", "reported.endpoint": "melting point", "reading": "131 to 135 °C"}
{"compound": "CCOc1cc(Cl)nc(Sc2ccc(C)cc2)n1", "reported.endpoint": "melting point", "reading": "94 to 97 °C"}
{"compound": "CCCCc1nnc(C(=O)N(C)Cc2ccccc2)n1Cc1ccc(-c2ccccc2C#N)cc1", "reported.endpoint": "melting point", "reading": "> 40 °C"}
{"compound": "O=C1N(Cc2cnccn2)c2ccccc2C12COc1cc3c(cc12)OCCO3 (stereo not given)", "reported.endpoint": "melting point", "reading": "216 to 218 °C"}
{"compound": "N#CC1CCCCC1n1nc(-c2c(-c3ccccc3)nn3ccccc23)ccc1=O (stereo not given)", "reported.endpoint": "melting point", "reading": "214 °C"}
{"compound": "CCOc1ccccc1OC(Cc1ccccc1)C1=NCCN1 (stereo not given)", "reported.endpoint": "melting point", "reading": "95 to 97 °C"}
{"compound": "Cc1nc(C)c(C(=O)c2ccoc2)o1", "reported.endpoint": "melting point", "reading": "73.5 to 74.5 °C"}

In: Answer with the recorded melting point for the compound listed here: Cc1c(Cl)cc(N2CCN(CCCCN3C(=O)c4ccccc4S3(=O)=O)CC2)c2c1OCCO2
Out: 136 to 137 °C

In: Using known records, supply melting point for COC(=O)c1ccc(CC(C)NCC(O)c2ccccc2Cl)cc1 (stereo not given)
Out: 109 to 110 °C
